B1: ZBED3 (parent)
chain: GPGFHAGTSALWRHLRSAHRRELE

# Variants of: B1
# PROTOCOL_DETAILS: protein stability index of a GFP-peptide fusion (GPS, HEK-293T) (PSI 1-6); higher = more stable;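 also: lentivirally expressed fusions sorted by FACS into six bins by GFP to DsRed ratio, PSI derived from sequencing read proportions per bin multiplied by bin number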
# CONDITION_CONTEXT: c terminus: a fixed tail appended
Could you please report measured protein stability index for the items listed next?
Numbers only.

INSERT INTO measurements (mutation_annotation, result_value) VALUES
  ('L23Y', 2.42),
  ('H5M', 2.82),
  ('H19E', 2.21),
  ('G1L', 2.52),
  ('F4S', 3.39),
  ('R21V', 1.53);

For every listed record, write down its protein stability index.
1. H14I
2. R20G
3. H14W
4. R16M
5. L23H
6. L11N
7. A18C
8. A10F

stdout:
1. 1.78
2. 2.23
3. 1.74
4. 2.97
5. 2.37
6. 2.3
7. 1.79
8. 2.33

For every listed record, write down its protein stability index.
1. H19N
2. R13A
3. T8S
4. H19G
5. G7A
6. T8D

stdout:
1.58
2.8
2.89
2.14
2.62
3.67

For every listed record, write down its protein stability index.
1. P2Q
2. G7N

stdout:
1. 4.32
2. 2.69

Source: the supplement of paper PMC10567573
